- Tested on: human coagulation factor XI protein
- method_notes: In vivo activity in human coagulation factor XI model mice (Experimental Example 3), plasma FXI protein by ELISA
- measurement_setup: humanized mice, single subcutaneous 1 mg/kg, D28
parameter: Relative inhibition rate (%) of FXI protein

* TD01M02L01: siRNA ligand conjugate: TD01M02 with L01 (GalNAc) ligand at 3' end of sense strand SEQ ID NO 31; antisense SEQ ID NO 32 (sense GATCTCCAACTAAAATACT; antisense AGTATTTTAGTTGGAGATCCG; GalNAc L01 ligand at sense 3' end, 2'-OMe/2'-F, pattern not given here) | 62.5%

----------
Recorded Relative inhibition rate (%) of FXI protein, one value per entry.
- System: human coagulation factor XI protein
- method_notes: In vivo activity in human coagulation factor XI model mice (Experimental Example 3), plasma FXI protein by ELISA
- measurement_setup: humanized mice, single subcutaneous 5 mg/kg, D42
parameter: Relative inhibition rate (%) of FXI protein

* TD02M02L01: dsRNA ligand conjugate: TD02M02 with L01 (GalNAc) ligand at 3' end of sense strand SEQ ID NO 35; antisense SEQ ID NO 36 (sense GGATGATTTTCTTATATCA; antisense TGATATAAGAAAATCATCCTG; GalNAc L01 ligand at sense 3' end, 2'-OMe/2'-F, pattern not given here) | 86.9
* TD01M01L01: siRNA ligand conjugate: TD01M01 with L01 (GalNAc) ligand at 3' end of sense strand SEQ ID NO 29; antisense SEQ ID NO 30 (sense GATCTCCAACTAAAATACT; antisense AGTATTTTAGTTGGAGATCCG; GalNAc L01 ligand at sense 3' end, 2'-OMe/2'-F, pattern not given here) | 91.8
* TD02M01L01: siRNA ligand conjugate: TD02M01 with L01 (GalNAc) ligand at 3' end of sense strand SEQ ID NO 33; antisense SEQ ID NO 34 (sense GGATGATTTTCTTATATCA; antisense TGATATAAGAAAATCATCCTG; GalNAc L01 ligand at sense 3' end, 2'-OMe/2'-F, pattern not given here) | 89.4
* TD01M02L01: siRNA ligand conjugate: TD01M02 with L01 (GalNAc) ligand at 3' end of sense strand SEQ ID NO 31; antisense SEQ ID NO 32 (sense GATCTCCAACTAAAATACT; antisense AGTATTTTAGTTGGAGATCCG; GalNAc L01 ligand at sense 3' end, 2'-OMe/2'-F, pattern not given here) | 93.1

----------
Recorded Relative inhibition rate (%) of FXI protein, one value per entry.
- Tested on: human coagulation factor XI protein
- method_notes: In vivo activity in human coagulation factor XI model mice (Experimental Example 3), plasma FXI protein by ELISA
- measurement_setup: humanized mice, single subcutaneous 1 mg/kg, D42
parameter: Relative inhibition rate (%) of FXI protein

* TD02M01L01: siRNA ligand conjugate: TD02M01 with L01 (GalNAc) ligand at 3' end of sense strand SEQ ID NO 33; antisense SEQ ID NO 34 (sense GGATGATTTTCTTATATCA; antisense TGATATAAGAAAATCATCCTG; GalNAc L01 ligand at sense 3' end, 2'-OMe/2'-F, pattern not given here) | 52.9%
* TD01M02L01: siRNA ligand conjugate: TD01M02 with L01 (GalNAc) ligand at 3' end of sense strand SEQ ID NO 31; antisense SEQ ID NO 32 (sense GATCTCCAACTAAAATACT; antisense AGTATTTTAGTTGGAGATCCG; GalNAc L01 ligand at sense 3' end, 2'-OMe/2'-F, pattern not given here) | 69.3%
* TD01M01L01: siRNA ligand conjugate: TD01M01 with L01 (GalNAc) ligand at 3' end of sense strand SEQ ID NO 29; antisense SEQ ID NO 30 (sense GATCTCCAACTAAAATACT; antisense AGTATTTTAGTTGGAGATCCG; GalNAc L01 ligand at sense 3' end, 2'-OMe/2'-F, pattern not given here) | 68.8%
* TD02M02L01: dsRNA ligand conjugate: TD02M02 with L01 (GalNAc) ligand at 3' end of sense strand SEQ ID NO 35; antisense SEQ ID NO 36 (sense GGATGATTTTCTTATATCA; antisense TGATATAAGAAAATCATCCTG; GalNAc L01 ligand at sense 3' end, 2'-OMe/2'-F, pattern not given here) | 70.5%

----------
- System: human coagulation factor XI protein
- method_notes: In vivo activity in human coagulation factor XI model mice (Experimental Example 3), plasma FXI protein by ELISA
- measurement_setup: humanized mice, single subcutaneous 5 mg/kg, D28
- Protocol: The humanized mice used in this experimental example were purchased from Cyagen Biosciences Co., Ltd. The humanized mice were randomly divided into groups, with 4 mice per group. […] Plasma was separated, and the content of the coagulation factor XI protein in the plasma was measured at each time point. […] The coagulation factor XI protein inhibition rate was calculated according to the following equation: [formula] […]
Recorded Relative inhibition rate (%) of FXI protein, one value per entry.
parameter: Relative inhibition rate (%) of FXI protein

* TD01M02L01: siRNA ligand conjugate: TD01M02 with L01 (GalNAc) ligand at 3' end of sense strand SEQ ID NO 31; antisense SEQ ID NO 32 (sense GATCTCCAACTAAAATACT; antisense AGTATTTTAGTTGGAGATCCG; GalNAc L01 ligand at sense 3' end, 2'-OMe/2'-F, pattern not given here) | 92.4%
* TD02M02L01: dsRNA ligand conjugate: TD02M02 with L01 (GalNAc) ligand at 3' end of sense strand SEQ ID NO 35; antisense SEQ ID NO 36 (sense GGATGATTTTCTTATATCA; antisense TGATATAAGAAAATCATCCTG; GalNAc L01 ligand at sense 3' end, 2'-OMe/2'-F, pattern not given here) | 88.4%
* TD01M01L01: siRNA ligand conjugate: TD01M01 with L01 (GalNAc) ligand at 3' end of sense strand SEQ ID NO 29; antisense SEQ ID NO 30 (sense GATCTCCAACTAAAATACT; antisense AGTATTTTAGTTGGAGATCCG; GalNAc L01 ligand at sense 3' end, 2'-OMe/2'-F, pattern not given here) | 89.5%

----------
- Tested on: human coagulation factor XI protein
- method_notes: In vivo activity in human coagulation factor XI model mice (Experimental Example 3), plasma FXI protein by ELISA
- measurement_setup: humanized mice, single subcutaneous 1 mg/kg, D7
parameter: Relative inhibition rate (%) of FXI protein

* TD02M02L01: dsRNA ligand conjugate: TD02M02 with L01 (GalNAc) ligand at 3' end of sense strand SEQ ID NO 35; antisense SEQ ID NO 36 (sense GGATGATTTTCTTATATCA; antisense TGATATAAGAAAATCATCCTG; GalNAc L01 ligand at sense 3' end, 2'-OMe/2'-F, pattern not given here) | 66.7
* TD01M02L01: siRNA ligand conjugate: TD01M02 with L01 (GalNAc) ligand at 3' end of sense strand SEQ ID NO 31; antisense SEQ ID NO 32 (sense GATCTCCAACTAAAATACT; antisense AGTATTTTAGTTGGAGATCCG; GalNAc L01 ligand at sense 3' end, 2'-OMe/2'-F, pattern not given here) | 65.1
* TD02M01L01: siRNA ligand conjugate: TD02M01 with L01 (GalNAc) ligand at 3' end of sense strand SEQ ID NO 33; antisense SEQ ID NO 34 (sense GGATGATTTTCTTATATCA; antisense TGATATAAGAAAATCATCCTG; GalNAc L01 ligand at sense 3' end, 2'-OMe/2'-F, pattern not given here) | 61.5

----------
- Test system: human coagulation factor XI protein
- method_notes: In vivo activity in human coagulation factor XI model mice (Experimental Example 3), plasma FXI protein by ELISA
- measurement_setup: humanized mice, single subcutaneous 5 mg/kg, D7
Recorded Relative inhibition rate (%) of FXI protein, one value per entry.
parameter: Relative inhibition rate (%) of FXI protein

- TD01M02L01: siRNA ligand conjugate: TD01M02 with L01 (GalNAc) ligand at 3' end of sense strand SEQ ID NO 31; antisense SEQ ID NO 32 (sense GATCTCCAACTAAAATACT; antisense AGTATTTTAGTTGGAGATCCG; GalNAc L01 ligand at sense 3' end, 2'-OMe/2'-F, pattern not given here): 90.9%
- TD02M01L01: siRNA ligand conjugate: TD02M01 with L01 (GalNAc) ligand at 3' end of sense strand SEQ ID NO 33; antisense SEQ ID NO 34 (sense GGATGATTTTCTTATATCA; antisense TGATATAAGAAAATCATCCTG; GalNAc L01 ligand at sense 3' end, 2'-OMe/2'-F, pattern not given here): 91.8%
- TD01M01L01: siRNA ligand conjugate: TD01M01 with L01 (GalNAc) ligand at 3' end of sense strand SEQ ID NO 29; antisense SEQ ID NO 30 (sense GATCTCCAACTAAAATACT; antisense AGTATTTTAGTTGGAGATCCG; GalNAc L01 ligand at sense 3' end, 2'-OMe/2'-F, pattern not given here): 90.5%
- TD02M02L01: dsRNA ligand conjugate: TD02M02 with L01 (GalNAc) ligand at 3' end of sense strand SEQ ID NO 35; antisense SEQ ID NO 36 (sense GGATGATTTTCTTATATCA; antisense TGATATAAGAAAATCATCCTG; GalNAc L01 ligand at sense 3' end, 2'-OMe/2'-F, pattern not given here): 91.5%

Origin of values: patent EP4772634A1
